- PROTOCOL_NOTES: chemical genetic growth profiling, strain panel (AID 1159580);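 note: tested at 20 µM; growth read once vehicle control cultures reached saturation at 30 °C; 1 = growth at the plate median or of vehicle wells; lower values mean less growth of the strain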
- MEASUREMENT_PARAMETERS: S. cerevisiae deletion strains, growth OD, locus YDL185W, strain tfp1, active compounds read low
The campaign covered roughly 5,500 compounds. About 2,000 (36%) were called active. About 18% were inconclusive and are not listed. Some of the results follow.
Listed here are molecules together with their documented normalized growth.

Answered examples (6):
[[record]]
molecule = "COC(=O)CCC(C)C1CCC2C3CC[C@@H]4C[C@H](O)CC[C@]4(C)C3C[C@H](O)[C@]12C (some centres not stated)"
result = "1.02 (inactive)"

[[record]]
molecule = "C[C@H](N)[C@H](O)c1ccccc1"
result = "0.991 (inactive)"

[[record]]
molecule = "Cc1cc(O)c(C)c2c1C(=O)Oc1c(C)c(O)c(C(=O)O)c(C)c1O2"
result = "0.989 (inactive)"

[[record]]
molecule = "Cc1nc2ccccn2c(=O)c1CCN1CCC(C(=O)c2ccc(F)cc2)CC1"
result = "0.992 (inactive)"

[[record]]
molecule = "c1ccc2c(c1)CN1CCCC1=N2"
result = "0.971 (inactive)"

[[record]]
molecule = "CN1CCN(C2=Nc3ccccc3Oc3ccc(Cl)cc32)CC1"
result = "0.992 (inactive)"


Item under review: CCC(=O)c1ccc2c(c1)N(CC(C)N(C)C)c1ccccc1S2 (configuration not stated) . Reported normalized growth?
0.995 (inactive)

Endpoint output: normalized growth of CNCCCN1c2ccccc2CCc2ccccc21 . Value?
1 (inactive)

###

Overview of recorded normalized growth for various molecules
- PROTOCOL_NOTES: chemical genetic growth profiling, strain panel (AID 1159580);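 note: tested at 20 µM; growth read once vehicle control cultures reached saturation at 30 °C; 1 = growth at the plate median or of vehicle wells; lower values mean less growth of the strain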
- MEASUREMENT_PARAMETERS: S. cerevisiae deletion strains, growth OD, locus YMR129W, active compounds read low
The whole screen tested about 5,500 compounds, of which about 2,000 (36%) were called active. Not shown: some 18% with an inconclusive outcome. This is one part of the list.
Lab note: jot down the number only; don't add units.

Some molecules with recorded normalized growth:
[[record]]
molecule = "c1ccc2nc(N3CCNCC3)ccc2c1"
observation_type = "normalized growth"
quantitative_readout = 0.99

[[record]]
molecule = "O=c1cc(-c2ccccc2)oc2cc(O)c(O)cc12"
observation_type = "normalized growth"
quantitative_readout = 0.972

[[record]]
molecule = "COc1cc([C@H]2Oc3cc([C@H]4Oc5cc(O)cc(O)c5C(=O)[C@@H]4O)ccc3O[C@@H]2CO)ccc1O"
observation_type = "normalized growth"
quantitative_readout = 1.01

[[record]]
molecule = "CCN(CC)C(C)CN1c2ccccc2Sc2ccccc21 (configuration not stated)"
observation_type = "normalized growth"
quantitative_readout = 0.995

[[record]]
molecule = "CN(C(=O)CN(CCO)CC(=O)N(C)C(C)(C)Cc1ccccc1)C(C)(C)Cc1ccccc1"
observation_type = "normalized growth"
quantitative_readout = 1.01


Field request: normalized growth | item: CNC(=O)Oc1ccc2c(c1)[C@]1(C)CCN(C)[C@@H]1N2C
1.01

Item CCCCCC1C(=O)CCC1CC(=O)OC (configuration not stated) has what recorded normalized growth?
0.973

What measured normalized growth goes with COC(=O)CCC(C)[C@H]1CCC2C3C(C[C@H](O)[C@@]21C)[C@@]1(C)CC[C@@H](O)C[C@H]1C[C@H]3O (some centres not stated) ?
1.01

// returns reported normalized growth for input CC(CCC(=O)O)[C@H]1CCC2C3C(C[C@H](O)[C@@]21C)[C@@]1(C)CC[C@@H](O)C[C@H]1C[C@H]3O (some centres not stated)
0.991

If you can, please state the reported normalized growth value of O=c1cc(-c2cc(O)c(O)c(O)c2)oc2cc(O)cc(O)c12 .
1.01

What does the data say about its normalized growth? Entry: CC(CN(C)C)CN1c2ccccc2CCc2ccccc21 (configuration not stated)
0.981

Fill blank: measured normalized growth of the molecule CCCC(CCC)C(=O)O is ____.
1.01

Values compiled from PubChem BioAssay AID1159580.
